- Tested on: CAMK1B
- Condition description: concentration: 1 μM, replicates: in singlicate; n = 1
We'd kindly ask you to apply these %Inh classes: A: < 3%; B: ≥ 3% and < 30%; C: ≥ 30%

>  <Smiles string>
CCc1nc(-c2cccc(N(C)S(=O)(=O)c3ccccc3)c2)c(-c2ccnc(Nc3ccc(N4CCN(C(C)=O)CC4)nc3)n2)s1

>  <Target under test>
CAMK1B

>  <Label class>
B

$$$$
>  <Smiles string>
CN1c2ccc(-c3ccc(C(=O)NCCO)cc3)cc2-c2[nH]ncc2S1(=O)=O

>  <Target under test>
CAMK1B

>  <Label class>
B

$$$$
>  <Smiles string>
N#Cc1ccc(Oc2ccc(Nc3ncnc4cc[nH]c34)cc2Cl)cc1

>  <Target under test>
CAMK1B

>  <Label class>
A

$$$$
>  <Smiles string>
Nc1nccc2scc(-c3ccc4c(c3)CCN4C(=O)Cc3cc(F)ccc3F)c12

>  <Target under test>
CAMK1B

>  <Label class>
B

$$$$
>  <Smiles string>
Nc1n[nH]c2nnc(-c3ccccc3)cc12

>  <Target under test>
CAMK1B

>  <Label class>
C

$$$$
>  <Smiles string>
COc1cc2ncnc(Nc3ccc(OCc4ccccc4Br)c(Cl)c3)c2cc1OC.Cl

>  <Target under test>
CAMK1B

>  <Label class>
B

$$$$
>  <Smiles string>
COC(=O)c1cccc(NC(=O)NCCNc2ccnc(Nc3ccc(F)cc3)n2)c1

>  <Target under test>
CAMK1B

>  <Label class>
A

$$$$
>  <Smiles string>
Clc1cccc(-c2nc(Nc3ccncc3)c3ccccc3n2)c1

>  <Target under test>
CAMK1B

>  <Label class>
A

$$$$
>  <Smiles string>
Fc1ccc(Nc2nccc(-c3c(-c4ccc(Cl)cc4)nn4ncccc34)n2)cc1F

>  <Target under test>
CAMK1B

>  <Label class>
B

$$$$
>  <Smiles string>
NC(=O)c1sc(-n2cnc3ccccc32)cc1OCc1ccccc1F

>  <Target under test>
CAMK1B;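 note: KINOMEscan kinase panel screen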

>  <Label class>
C

$$$$
